Target: 5-hydroxytryptamine receptor 1D (Homo sapiens, UniProt P28221)
Sequence (P28221 whole entry): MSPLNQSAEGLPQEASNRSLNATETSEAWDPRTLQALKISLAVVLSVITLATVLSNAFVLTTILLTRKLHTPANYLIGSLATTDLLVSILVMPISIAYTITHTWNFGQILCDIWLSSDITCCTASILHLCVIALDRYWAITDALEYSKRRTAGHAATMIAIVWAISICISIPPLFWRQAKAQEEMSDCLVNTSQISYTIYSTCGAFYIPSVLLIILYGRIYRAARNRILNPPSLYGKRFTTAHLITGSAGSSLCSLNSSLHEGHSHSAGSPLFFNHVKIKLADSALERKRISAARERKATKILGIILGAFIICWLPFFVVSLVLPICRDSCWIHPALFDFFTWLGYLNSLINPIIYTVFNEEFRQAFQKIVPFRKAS
Assay: Displacement of [3H]5-HT from human recombinant 5HT1D receptor expressed in CHO cells
Ki by entry:
Express it in nM; write the number only.

INPUT: Checklist item: Ki tested on 5-hydroxytryptamine receptor 1D (Homo sapiens, UniProt P28221), entry CCCN1C(=O)COc2ccc(CN3CCN(CCOc4cccc5nc(C)ccc45)CC3)cc21 , value?
OUTPUT: 2

INPUT: Continue with Cc1ccc2c(OCCN3CCN(Cc4ccc5c(c4)N(CCc4ccccc4)C(=O)CO5)CC3)cccc2n1
OUTPUT: 2

INPUT: Similarly, CCN1C(=O)COc2ccc(CN3CCN(CCOc4cccc5nc(C)ccc45)CC3)c(F)c21 ?
OUTPUT: 1.26

INPUT: Moving on to the next compound: CCCCN1C(=O)COc2ccc(CN3CCN(CCOc4cccc5nc(C)ccc45)CC3)cc21
OUTPUT: 3.16

INPUT: What do we get for Cc1ccc2c(OCCN3CCN(Cc4ccc5c(c4)N(CC(C)C)C(=O)CO5)CC3)cccc2n1 ?
OUTPUT: 2.51

Hey, just so you know, these numbers are from ChEMBL document CHEMBL1139760.
